assay: Selectivity ratio of EC50 for C57BL/6 mouse MEF to EC50 for human MDA-MB-231 cells; assay type: ADME; settings: C57BL/6, mouse and human, mouse embryonic fibroblasts (MEF) versus MDA-MB-231 cells
MEASURE NAME: selectivity ratio
Numbers only.

Prompt: Find the recorded selectivity ratio belonging to "CCn1c(=O)/c(=C2\Sc3cccc(F)c3N2C)s/c1=C\c1scc[n+]1Cc1ccccc1.[Cl-]" and report it.
Completion: 21

###

assay: Half life in mouse liver microsomes at 1 uM incubated for 15 mins prior to beta-NADPH addition by LC-MS/MS analysis; format: ADME, Microsome; conditions: liver microsomes
Provide the reported half-life at 1 µM of each item.
Numbers only, in min.

Consider the reported half-life at 1 µM for these compounds:
# STRUCTURE SMILES, half-life at 1 µM (min)
data = [
    ("CCn1c(=O)/c(=C2\\Sc3cccc(Cl)c3N2C)s/c1=C\\c1scc[n+]1Cc1ccccc1.[Cl-]", 8.8),
    ("CCn1c(=O)/c(=C2\\Sc3cc(Cl)ccc3N2C)s/c1=C\\c1cccc[n+]1C.[Cl-]", 8.2),
]

Let us examine a further case.
Prompt: Find the recorded half-life at 1 µM belonging to "CCn1c(=O)/c(=C2\Sc3cc(OC)ccc3N2C)s/c1=C\c1cccc[n+]1C.[Cl-]" and report it.
Completion: 10
